# Assay Remarks: Inhibition of helicase activity of Dengue virus NTPase/helicase expressed in Escherichia coli using DNA substrate
pIC50: −log10 of the molar value.
Endpoint Label: pIC50

Q: Output pIC50 of NC(=O)c1ncn([C@@H]2O[C@H](CO)[C@@H](O)[C@H]2O)c1C1N=C(N)NC(N)=N1
A: < 3.37

----------
# Assay Remarks: Inhibition of helicase activity of Hepatitis C virus NTPase/helicase expressed in Escherichia coli using DNA substrate
# Set-up: species or system Hepacivirus hominis
Endpoint Label: IC50 (µM)
One number for each entry, in µM.

Q: Kindly indicate its recorded IC50. Item: NC(=O)c1ncn([C@@H]2O[C@H](CO)[C@@H](O)[C@H]2O)c1C1N=C(N)NC(N)=N1
A: 37

Source listed as ChEMBL document CHEMBL1139146.
